Numbers sourced from a melting point compilation (Tetko et al.; mined from patent text by program, amines drawn as free bases though some values may be those of a salt).

readout.label: melting point

CN(C)Cc1ccc(C=CC(=O)O)s1: 224 to 225 °C
N#CCCc1ccc(C(=O)O)cc1: 182 °C
CCc1nc2cc(C(N)=O)c(Cl)cc2n1-c1ccc(CCNC(=O)NS(=O)(=O)c2ccc(C)cc2)cc1: 152 to 163 °C
CON=Cc1c[nH]c(-c2ccc(F)cc2)c1-c1ccncc1: 242 to 248 °C
C=CCOC(=O)[C@@H]1CCC[C@@H]1C(N)=O (relative stereo): 35 °C

Task item: Could you share which melting point value was measured for `Cc1nccc(OCc2ccccc2)c1OCc1ccccc1` ?
Reply: 85 to 87 °C

Task item: Thanks! And `CC(=O)c1ccc(CC(C)C)c(C#N)c1` ?
Reply: 71 to 72 °C

Task item: Thanks! And `COc1cc(OC)c(-c2cc3ccccc3[nH]2)cc1C=CC(=O)c1ccc(S(=O)(=O)NCC(=O)O)cc1` ?
Reply: 189 to 190 °C

Task item: Thanks! And `O=C(c1ccc(-c2cc(Cl)ccc2O)cc1C(F)(F)F)N1CCCC1` ?
Reply: 220 to 221 °C

Task item: Thanks! And CCOC(=O)C1=C(C#N)NC(C)=C(C(=O)OCCN(CC)CC)C1c1cccc([N+](=O)[O-])c1 (stereo not given) ?
Reply: 150 to 152 °C

###

// melting point lookup, one value per entry

CC(NC(Nc1cccnc1)=C(C#N)S(=O)(=O)c1ccc(Cl)cc1)C(C)(C)C (stereo not given): 172 to 174 °C
CCC(=O)Nc1ccc(OC)c(=O)cc1: 116 to 118 °C
CCCC=Cc1c(C(C)C)nc(C(C)C)c(CO)c1-c1ccc(-c2ccccc2)cc1: 50 to 52 °C
CC(=O)Oc1cc(C(C)(C)C)ccc1C1(OC(C)=O)C(=O)c2ccccc2C1=O: 119 to 120 °C

Consider the additional compound presented here.
Task item: Could you share which melting point value was measured for `NS(=O)(=O)c1ccc(-n2nc(C(F)F)cc2-c2cnccn2)cc1` ?
Reply: 191 to 194 °C

###

readout.label: melting point

CCc1cc2c(s1)SCc1cc(=O)n(-c3ccc(Cl)cc3)nc1-2: 161 to 163 °C
COC(=O)c1cc(C=O)c(C)nc1C1=NC(C)(C(C)C)C(=O)N1 (stereo not given): 145 to 146 °C
COc1cc(C=CC=O)ccc1OC(C)C: 93 to 94 °C

Task item: Could you share which melting point value was measured for `CCOC(=O)C(=CNc1ncnc2ccc([N+](=O)[O-])cc12)C(=O)OCC` ?
Reply: 228 to 230 °C

Task item: Thanks! And `NS(=O)(=O)c1ccc(-n2nc(C(F)F)cc2-c2nc3ccc(F)cc3s2)cc1` ?
Reply: 255 °C

###

// melting point lookup, one value per entry
Starred links: 1 amine or outer side, 2 acyl side, 3 side chain; linkers in the order of their positions; H or OH if unused. Residues, ends and D or L forms follow the SMILES beside them. *: point of attachment. 4Abz = Nc1ccc(C(=O)O)cc1; CO = O=C([*:1])[*:2]; CF3 = FC(F)(F)*

These solved cases illustrate the format of a correct answer.
Cc1cc(C(=O)NS(=O)(=O)c2ccccc2Cl)nc(Cl)n1: 170 to 171 °C
COC(=O)NC(=Nc1cc(OS(=O)(=O)c2cccc(C(F)(F)F)c2)ccc1NC(N)=O)NC(=O)OC: 131 °C
CC(C)C(NC(=O)Nc1ccc(C(=O)NCC(=O)O)cc1)C(=O)N1CCCC1C(=O)NC(C(=O)C(F)(F)F)C(C)C (stereo not drawn) ({Gly-4Abz-CO}-Val-Pro-Val-CF3; configuration not given here): 98 to 128 °C
O=C1N(c2cc(Cl)cc(Cl)c2)C(=O)C2(Cc3ccc(Br)cc3)C[C@@H](c3ccccc3)CN12 (stereo not given in full): 124 °C
COC12CC(C)(C)C(O1)C(O)C=C2C (stereo not given): 52 to 54 °C

Task item: Could you share which melting point value was measured for CC(=O)OC1CSC(Oc2ccc(-c3cccnc3)cc2F)C(OC(C)=O)C1OC(C)=O (stereo not given) ?
Reply: 122 °C
